- Tested on: microorganisms
- assay: Morphology, biofilm and growth disruption by peptides (Table 5)
- Assay type: cell-based
- Set-up: key: A: Peptide aggregates; B: Less hyphal formation; Clumps; Diffuse clumps and small polyps; F: Diffuse growth; H: Thin; I: Growth inhibition; Microcolony formation; Rippled; Small polyps; Thick; W: Halo formation on top, microlonies on bottom
- condition-label: S. epidermidis
reported-endpoint: Organism, effect

> print(dat)
                                  substance  measurement.target      reported.value
1  PF-399 (FPIISALLGAIICIAIYSFIVNRKA; Peptide with targeting and/or antimicrobial activity)      microorganisms  S. epidermidis (C)
2  PF-123 (TTRPQVAEDRQLDDALKETFPASDPISP; Peptide with targeting and/or antimicrobial activity)      microorganisms  S. epidermidis (M)
3            MGIIAGIIKFIKGLIEKFTGK [PF-006]      microorganisms  S. epidermidis (D)
4  PF-386 (FTLTLITTIVAILNYKDKKK; Peptide with targeting and/or antimicrobial activity)      microorganisms  S. epidermidis (C)
5  PF-064 (DYYGKE; Peptide with targeting and/or antimicrobial activity)      microorganisms  S. epidermidis (D)

Name the recorded Organism, effect of the item PF-379 (VFVVLFIIYLASKLLTKLFPIKK; Peptide with targeting and/or antimicrobial activity) in your answer.
S. epidermidis (C)

Name the recorded Organism, effect of the item LIQKGLNQTFIVVIRLNNFIKKS [PF-013] in your answer.
S. epidermidis (C)

Name the recorded Organism, effect of the item PF-373 (HFYLLFER; Peptide with targeting and/or antimicrobial activity) in your answer.
S. epidermidis (M)

Name the recorded Organism, effect of the item PF-204 (ALQKQDMNLPSVKNQLVFLKSTG; Peptide with targeting and/or antimicrobial activity) in your answer.
S. epidermidis (C)

Name the recorded Organism, effect of the item PF-178 (EVYSSPTNNVAITVQNN; Peptide with targeting and/or antimicrobial activity) in your answer.
S. epidermidis (D)

Name the recorded Organism, effect of the item PF-417 (DSYFRS; Peptide with targeting and/or antimicrobial activity) in your answer.
S. epidermidis (M)

Name the recorded Organism, effect of the item PF-020 (MKIILLLFLIFGFIVVVTLKSEHQLTLFSI; Peptide with targeting and/or antimicrobial activity) in your answer.
S. epidermidis (C)

Name the recorded Organism, effect of the item NYAVVSHT [PF-209] in your answer.
S. epidermidis (C)
